Conditions: in n-propanol, 298.15 K
readout.kind: solubility (mole fraction)
Please respond with just the number, no unit label.

For the compound shown here, O=C(O)CCc1nc(-c2ccccc2)c(-c2ccccc2)o1 , give the reported solubility (mole fraction).
0.00637

###

Details: in n-pentanol, 288.15 K
readout.kind: solubility (mole fraction)
Please respond with just the number, no unit label.

For the compound shown here, O=C(O)CCc1nc(-c2ccccc2)c(-c2ccccc2)o1 , give the reported solubility (mole fraction).
0.00458

###

Settings: in n-pentyl acetate, 278.15 K
readout.kind: solubility (mole fraction)
Please respond with just the number, no unit label.

For the compound shown here, O=C(O)CCc1nc(-c2ccccc2)c(-c2ccccc2)o1 , give the reported solubility (mole fraction).
0.00274

###

Conditions: in n-propanol, 278.15 K
readout.kind: solubility (mole fraction)
Please respond with just the number, no unit label.

For the molecule shown here, O=C(O)CCc1nc(-c2ccccc2)c(-c2ccccc2)o1 , give the reported solubility (mole fraction).
0.00255

The origin of these recorded values is BigSolDB 2.1.
